Assay Notes: Plasma pharmacokinetics of tosedostat, CHR-79888 and paclitaxel (LC-MS/MS, noncompartmental)
Test Context: human, plasma, oral, Cmax, cohort 2: CHR-2797 90 mg, paclitaxel 175 mg m^−2; day 22, tosedostat in combination with paclitaxel; plasma; mean (±s.e.m.)
Assay Readout: Cmax
Please answer in the form of a number followed by its unit of measurement.

Complete the entry with Cmax for CC(C)C[C@@H](C(=O)N[C@H](C(=O)OC1CCCC1)c1ccccc1)[C@H](O)C(=O)NO
527 ng/mL

---

Assay Notes: Plasma pharmacokinetics of tosedostat, CHR-79888 and paclitaxel (LC-MS/MS, noncompartmental)
Test Context: human, plasma, oral, Tmax, cohort 3: CHR-2797 130 mg, paclitaxel 175 mg m^−2; day 22, tosedostat in combination with paclitaxel; plasma; mean (±s.e.m.)
Assay Readout: Tmax (h)
Report the figure in h without appending any unit label.

Complete the entry with Tmax for CC(C)C[C@@H](C(=O)N[C@H](C(=O)OC1CCCC1)c1ccccc1)[C@H](O)C(=O)NO [tosedostat]
1.3

---

Assay Notes: Plasma pharmacokinetics of tosedostat, CHR-79888 and paclitaxel (LC-MS/MS, noncompartmental)
Test Context: human, plasma, oral, 130 mg, Vz/F, cohort 3: CHR-2797 130 mg, paclitaxel 175 mg m^−2; day 21, tosedostat without paclitaxel; plasma; mean (±s.e.m.)
Assay Readout: Vd/F (L)
Report the figure in L without appending any unit label.

Complete the entry with Vd/F for CC(C)C[C@@H](C(=O)N[C@H](C(=O)OC1CCCC1)c1ccccc1)[C@H](O)C(=O)NO
112

---

Assay Notes: Plasma pharmacokinetics of tosedostat, CHR-79888 and paclitaxel (LC-MS/MS, noncompartmental)
Test Context: human, plasma, oral, 90 mg, Vz/F, cohort 1: CHR-2797 90 mg, paclitaxel 135 mg m^−2; day 21, tosedostat without paclitaxel; plasma; mean (±s.e.m.)
Assay Readout: Vd/F
Please answer in the form of a number followed by its unit of measurement.

Complete the entry with Vd/F for CC(C)C[C@@H](C(=O)N[C@H](C(=O)OC1CCCC1)c1ccccc1)[C@H](O)C(=O)NO
179 L

---

Assay Notes: Plasma pharmacokinetics of tosedostat, CHR-79888 and paclitaxel (LC-MS/MS, noncompartmental)
Test Context: human, plasma, oral, Vz/F, cohort 1: CHR-2797 90 mg, paclitaxel 135 mg m^−2; day 22, tosedostat in combination with paclitaxel; plasma; mean (±s.e.m.)
Assay Readout: Vd/F (L)
Report the figure in L without appending any unit label.

Complete the entry with Vd/F for CC(C)C[C@@H](C(=O)N[C@H](C(=O)OC1CCCC1)c1ccccc1)[C@H](O)C(=O)NO
258

---

Assay Notes: Plasma pharmacokinetics of tosedostat, CHR-79888 and paclitaxel (LC-MS/MS, noncompartmental)
Test Context: human, plasma, oral, T½, cohort 3: CHR-2797 130 mg, paclitaxel 175 mg m^−2; day 22, tosedostat in combination with paclitaxel; plasma; mean (±s.e.m.)
Assay Readout: half-life (h)
Report the figure in h without appending any unit label.

Complete the entry with half-life for CC(C)C[C@@H](C(=O)N[C@H](C(=O)OC1CCCC1)c1ccccc1)[C@H](O)C(=O)NO [tosedostat]
4

---

Assay Notes: Plasma pharmacokinetics of tosedostat, CHR-79888 and paclitaxel (LC-MS/MS, noncompartmental)
Test Context: human, plasma, oral, 180 mg, Vz/F, cohort 4: CHR-2797 180 mg, paclitaxel 175 mg m^−2; day 21, tosedostat without paclitaxel; plasma; mean (±s.e.m.)
Assay Readout: Vd/F (L)
Report the figure in L without appending any unit label.

Complete the entry with Vd/F for CC(C)C[C@@H](C(=O)N[C@H](C(=O)OC1CCCC1)c1ccccc1)[C@H](O)C(=O)NO
123

---

Assay Notes: Plasma pharmacokinetics of tosedostat, CHR-79888 and paclitaxel (LC-MS/MS, noncompartmental)
Test Context: human, plasma, oral, 130 mg, Cmax, cohort 3: CHR-2797 130 mg, paclitaxel 175 mg m^−2; day 21, tosedostat without paclitaxel; plasma; mean (±s.e.m.)
Assay Readout: Cmax (ng/mL)
Report the figure in ng/mL without appending any unit label.

Complete the entry with Cmax for CC(C)C[C@@H](C(=O)N[C@H](C(=O)OC1CCCC1)c1ccccc1)[C@H](O)C(=O)NO
880

---

Assay Notes: Plasma pharmacokinetics of tosedostat, CHR-79888 and paclitaxel (LC-MS/MS, noncompartmental)
Test Context: human, plasma, oral, 90 mg, Tmax, cohort 2: CHR-2797 90 mg, paclitaxel 175 mg m^−2; day 21, tosedostat without paclitaxel; plasma; mean (±s.e.m.)
Assay Readout: Tmax (h)
Report the figure in h without appending any unit label.

Complete the entry with Tmax for CC(C)C[C@@H](C(=O)N[C@H](C(=O)OC1CCCC1)c1ccccc1)[C@H](O)C(=O)NO
1.2

---

Assay Notes: Plasma pharmacokinetics of tosedostat, CHR-79888 and paclitaxel (LC-MS/MS, noncompartmental)
Test Context: human, plasma, oral, 90 mg, T½, cohort 1: CHR-2797 90 mg, paclitaxel 135 mg m^−2; day 21, tosedostat without paclitaxel; plasma; mean (±s.e.m.)
Assay Readout: half-life (h)
Report the figure in h without appending any unit label.

Complete the entry with half-life for CC(C)C[C@@H](C(=O)N[C@H](C(=O)OC1CCCC1)c1ccccc1)[C@H](O)C(=O)NO
1.2
